experimentSummary: Tumor cell line cytotoxicity of flavonoid dimers, LCC6MDR
Type: cell-based, human
reportedConditions: human, LCC6MDR cells, IC50 of compound alone
measuredAttribute: IC50 at 72 h

O=c1cc(-c2ccc(OCCOCCN(CCOCCOc3ccc(-c4cc(=O)c5ccccc5o4)cc3)Cc3cc(F)c(F)c(F)c3)cc2)oc2ccccc12 : > 100 µM
O=c1cc(-c2ccc(OCCOCCN(CCOCCOc3ccc(-c4cc(=O)c5ccccc5o4)cc3)Cc3c(F)cccc3F)cc2)oc2ccccc12 : > 100 µM

Looking up C=Cc1ccc(CN(CCOCCOc2ccc(-c3cc(=O)c4ccccc4o3)cc2)CCOCCOc2ccc(-c3cc(=O)c4ccccc4o3)cc2)cc1 , I found its IC50 at 72 h recorded as 28.3 µM

Looking up O=c1cc(-c2ccc(OCCOCCN(CCOCCOc3ccc(-c4cc(=O)c5ccccc5o4)cc3)Cc3ccc4c(c3)OCO4)cc2)oc2ccccc12 [Compound 42e] , I found its IC50 at 72 h recorded as > 100 µM

Looking up O=c1cc(-c2ccc(OCCOCCN(CCOCCOc3ccc(-c4cc(=O)c5ccccc5o4)cc3)Cc3cccnc3)cc2)oc2ccccc12 [Compound 64a] , I found its IC50 at 72 h recorded as 4.7 µM

Looking up O=c1cc(-c2ccc(OCCOCCN(CCOCCOc3ccc(-c4cc(=O)c5ccccc5o4)cc3)Cc3ccc4ccccc4n3)cc2)oc2ccccc12 [Compound 64g] , I found its IC50 at 72 h recorded as > 100 µM

Looking up COc1cccc2oc(-c3ccc(OCCOCCN(CCOCCOc4ccc(-c5cc(=O)c6c(OC)cccc6o5)cc4)C(=O)OC(C)(C)C)cc3)cc(=O)c12 [Compound 16d] , I found its IC50 at 72 h recorded as 5.4 µM

Looking up O=c1cc(-c2ccc(OCCOCCN(CCOCCOc3ccc(-c4cc(=O)c5ccccc5o4)cc3)Cc3ccccc3F)cc2)oc2ccccc12 , I found its IC50 at 72 h recorded as > 100 µM

Looking up Cc1ccc(CN(CCOCCOc2ccc(-c3cc(=O)c4ccccc4o3)cc2)CCOCCOc2ccc(-c3cc(=O)c4ccccc4o3)cc2)cc1 , I found its IC50 at 72 h recorded as > 81 µM

Looking up COc1ccc(CN(CCOCCOc2ccc(-c3cc(=O)c4ccccc4o3)cc2)CCOCCOc2ccc(-c3cc(=O)c4ccccc4o3)cc2)cc1 [Compound 42a] , I found its IC50 at 72 h recorded as > 100 µM

Looking up N#Cc1ccc(CN(CCOCCOc2ccc(-c3cc(=O)c4ccccc4o3)cc2)CCOCCOc2ccc(-c3cc(=O)c4ccccc4o3)cc2)cc1 , I found its IC50 at 72 h recorded as > 100 µM

Looking up O=c1cc(-c2ccc(OCCOCCN(CCOCCOc3ccc(-c4cc(=O)c5ccccc5o4)cc3)Cc3ccc4ccccc4c3)cc2)oc2ccccc12 , I found its IC50 at 72 h recorded as 8.9 µM

----------
experimentSummary: Tumor cell line cytotoxicity of flavonoid dimers, LCC6
Type: cell-based, human
reportedConditions: human, LCC6 cells, IC50 of compound alone
measuredAttribute: IC50 at 72 h

These recorded examples may help you get a feel for the data.
O=c1cc(-c2ccc(OCCOCCN(CCOCCOc3ccc(-c4cc(=O)c5ccccc5o4)cc3)Cc3cccc(Cl)c3)cc2)oc2ccccc12 : > 100 µM
CS(=O)(=O)N(CCOCCOc1ccc(-c2cc(=O)c3ccccc3o2)cc1)CCOCCOc1ccc(-c2cc(=O)c3ccccc3o2)cc1 : 27.5 µM
O=c1cc(-c2ccc(OCCOCCN(CCOCCOc3ccc(-c4cc(=O)c5ccccc5o4)cc3)Cc3ccc4c(c3)OCO4)cc2)oc2ccccc12 [Compound 42e] : > 100 µM
COc1ccc(CN(CCOCCOc2ccc(-c3cc(=O)c4ccccc4o3)cc2)CCOCCOc2ccc(-c3cc(=O)c4ccccc4o3)cc2)cc1 [Compound 42a] : > 91 µM
O=c1cc(-c2ccc(OCCOCCN(CCOCCOc3ccc(-c4cc(=O)c5ccccc5o4)cc3)Cc3ccc(F)cc3F)cc2)oc2ccccc12 : > 100 µM

Proceed to the following item.
Looking up O=c1cc(-c2ccc(OCCOCCN(CCOCCOc3ccc(-c4cc(=O)c5ccccc5o4)cc3)Cc3ccncc3)cc2)oc2ccccc12 , I found its IC50 at 72 h recorded as > 100 µM
